Consider the following sequences; for each one, report its PBM binding z-score.
System: PPARg:RXRa (NR concentration 180 nM, RXRa partner concentration 90 nM)
Assay: PBM binding z-score (relative to random genomic background probes); higher = stronger binding; sequences stand for … in GC…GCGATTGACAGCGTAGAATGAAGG
Numbers only.

Example cases with answers are listed next.
{"columns": ["entry sequence", "test result"],
 "data": [
  ["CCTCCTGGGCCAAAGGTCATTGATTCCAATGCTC", 9.24],
  ["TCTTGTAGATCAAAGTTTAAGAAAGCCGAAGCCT", 4.04],
  ["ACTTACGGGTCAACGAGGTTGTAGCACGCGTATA", 5.04],
  ["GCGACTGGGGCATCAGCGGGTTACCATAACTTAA", 0.815],
  ["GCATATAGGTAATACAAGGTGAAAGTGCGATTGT", 1.96]
]}

Respectfully, I request PBM binding z-score for each entry included below.
1. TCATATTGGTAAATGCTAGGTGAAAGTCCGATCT
2. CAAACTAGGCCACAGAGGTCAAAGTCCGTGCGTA
3. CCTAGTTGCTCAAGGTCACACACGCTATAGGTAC
4. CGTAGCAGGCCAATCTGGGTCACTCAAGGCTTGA
5. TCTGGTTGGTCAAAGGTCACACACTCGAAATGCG

[reply]
1: 0.033; 2: 7.19; 3: 2.13; 4: 2.21; 5: 10.3

Respectfully, I request PBM binding z-score for each entry included below.
1. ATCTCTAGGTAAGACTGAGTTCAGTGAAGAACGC
2. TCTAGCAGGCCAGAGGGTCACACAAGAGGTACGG

[reply]
1. -0.0566
2. 2.49
